Hey, just so you know, these numbers are from patent US11331299B2.

Biological target: CYP2C19 (Homo sapiens, UniProt P33261)
Construct: Human liver microsomes; from tissue; host or cells: human liver microsomes
Sequence (P33261 whole entry): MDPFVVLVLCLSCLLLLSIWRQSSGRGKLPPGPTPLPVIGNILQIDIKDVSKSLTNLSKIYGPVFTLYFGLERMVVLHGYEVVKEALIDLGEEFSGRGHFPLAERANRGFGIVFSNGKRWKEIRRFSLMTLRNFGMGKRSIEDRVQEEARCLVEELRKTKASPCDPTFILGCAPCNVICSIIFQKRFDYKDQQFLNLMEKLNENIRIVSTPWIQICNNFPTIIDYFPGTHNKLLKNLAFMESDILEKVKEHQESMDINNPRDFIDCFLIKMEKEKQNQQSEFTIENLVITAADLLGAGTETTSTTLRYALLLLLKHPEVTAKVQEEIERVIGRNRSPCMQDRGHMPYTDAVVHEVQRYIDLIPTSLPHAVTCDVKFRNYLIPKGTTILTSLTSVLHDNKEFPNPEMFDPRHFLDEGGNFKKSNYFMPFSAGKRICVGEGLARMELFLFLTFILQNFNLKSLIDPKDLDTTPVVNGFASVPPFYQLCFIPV
Test: Cytochrome P450 Inhibition (CYP panel)
Assay type: in vitro ADME
Settings: human liver microsomes, probe omeprazole, CYP2C19 (omeprazole sub.), Human liver microsomes, 10 μM, read-out: % Inhibition of Control Values
MEASUREMENT_LABEL: inhibition at 10 µM (%)
Response body: numeric value in %, unit text excluded.

Consider the reported inhibition at 10 µM for these molecules:
# MOLECULE, MEASURED_RESULT
measured = [
    ("CC(C)=CCC[C@H](CO)[C@@H]1CC[C@@H](C)c2c1cc(C)c(O)c2O [Compound 1, 7,8,18-trihydroxyserrulat-14-ene]", 90),
    ("CC(C)=CCC[C@H](C)[C@@H]1CC[C@@H](C)c2c1cc(C)c(O)c2O [Compound 4, 7,8-dihydroxyserrulat-14-ene]", 78),
]

API: the following record is the query input.
Input: inhibition at 10 µM for CC(C)=CCC[C@@H]1C(O)Oc2c(C)cc(O)c3c2[C@H]1CC[C@H]3C (stereo partly drawn) ?
Output: 73

---

Target: Sirtuin 6 (h) (Homo sapiens)
Sequence (Q8N6T7 whole entry): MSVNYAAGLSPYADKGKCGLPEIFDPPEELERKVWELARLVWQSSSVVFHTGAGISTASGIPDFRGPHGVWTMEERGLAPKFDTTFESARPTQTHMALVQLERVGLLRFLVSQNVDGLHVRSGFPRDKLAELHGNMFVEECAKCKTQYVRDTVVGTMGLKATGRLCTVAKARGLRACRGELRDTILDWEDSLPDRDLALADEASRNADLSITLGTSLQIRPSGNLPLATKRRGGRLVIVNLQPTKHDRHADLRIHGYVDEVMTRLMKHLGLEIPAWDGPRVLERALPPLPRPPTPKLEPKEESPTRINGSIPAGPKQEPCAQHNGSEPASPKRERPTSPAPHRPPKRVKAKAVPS
Assay: Epigenetic enzyme assay, Sirtuins
Assay type: biochemical
Conditions: Table 10; read-out: Reference IC50
MEASUREMENT_LABEL: pIC50
Remember the convention: pIC50 equals -log10 of concentration in molar.

Input: What reported pIC50 corresponds to NC(=O)C1CCCc2c1[nH]c1ccc(Cl)cc21 (racemic) [EX-527, reference compound] on Sirtuin 6 (h) (Homo sapiens)?
Output: 3.26

---

Tested on: 280 human cancer cell lines
Assay: OncoPanel cell proliferation assay (10-day)
Type: cell-based
Details: Homo sapiens, BFTC-905, BFTC-905, Bladder; read-out: Cell Count EC50
MEASUREMENT_LABEL: EC50 (µM)
Response body: numeric value in µM, unit text excluded.

Consider the reported EC50 for these compounds:
# COMPOUND, MEASURED_RESULT
measured = [
    ("CC(C)=CCC[C@H](C)[C@@H]1CC[C@@H](C)c2c1cc(C)c(O)c2O [Compound 4, 7,8-dihydroxyserrulat-14-ene]", 9.7),
    ("CC(C)=CCC[C@@H]1C(O)Oc2c(C)cc(O)c3c2[C@H]1CC[C@H]3C (stereo partly drawn) [Compound 2, 5,18-epoxyserrulat-14-en-8,18-diol]", 8.03),
]

API: the following record is the query input.
Input: EC50 for CC(C)=CCC[C@H](CO)[C@@H]1CC[C@@H](C)c2c1cc(C)c(O)c2O [Compound 1, 7,8,18-trihydroxyserrulat-14-ene] ?
Output: 1.79

---

Test system: 280 human cancer cell lines
Experiment: OncoPanel cell proliferation assay (10-day)
Format: cell-based
Settings: Homo sapiens, TE 125.T, Soft Tissue - Sarcoma; read-out: Cell Count EC50
This listing pairs compounds with measured EC50.
Response body: numeric value in µM, unit text excluded.

# COMPOUND, SCALE_UNIT, MEASURED_RESULT
rows = [
    ("CC(C)=CCC[C@H](C)[C@@H]1CC[C@@H](C)c2c1cc(C)c(O)c2O [Compound 4, 7,8-dihydroxyserrulat-14-ene]", "µM", 23.6),
]

API: the following record is the query input.
Input: EC50 for CC(C)=CCC[C@H](CO)[C@@H]1CC[C@@H](C)c2c1cc(C)c(O)c2O [Compound 1, 7,8,18-trihydroxyserrulat-14-ene] ?
Output: 6.47
